Biological target: T1, recombinant, soluble human ASGR-1 (human, UniProt P07306 62-291)
T1 construct: biotinylated in the binning assay; also called soluble huASGR-1; Soluble ASGR-1 (Amgen)
T1 sequence: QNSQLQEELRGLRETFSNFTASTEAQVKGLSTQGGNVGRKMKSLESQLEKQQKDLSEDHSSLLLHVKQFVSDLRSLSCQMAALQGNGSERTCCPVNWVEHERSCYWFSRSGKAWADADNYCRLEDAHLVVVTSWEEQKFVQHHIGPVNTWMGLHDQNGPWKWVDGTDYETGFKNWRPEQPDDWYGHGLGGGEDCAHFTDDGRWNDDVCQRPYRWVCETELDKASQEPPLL
Assay: Octet BLI dissociation, pH 7.4 minus calcium
Protocol: The relative dissociation of ASGR-1 from antibodies was measured using a label-free assay on an OctetHTX instrument (Fortebio). Antibody samples were captured on anti-HuFc kinetic biosensors (ForteBio cat #18-5064) at 5 ug/mL in assay buffer (10 mM Tris, 0.1% Triton, 150 mM NaCl, 1 mg/mL BSA, 1 mM CaCl2, pH7.4) for three minutes. […] Soluble ASGR-1 (Amgen) at 6 ug/ml in assay buffer was added and association to the antibodies was monitored for two minutes. […]
What % Change Compared to pH 7.4 + Calcium was measured for each of the following?
Answers are plain numbers, in %.

Solved entries (count: 2):
{"columns": ["binder", "display.unit", "% Change Compared to pH 7.4 + Calcium"],
 "data": [
  ["74G6 (antibody, V domains shown, hybridoma mAb) VH: QVQLVESGGGVVQPGRSLRLSCAASGFTFSSYGMHWVRQAPGKGLEWVAVIWYDGSNKNYADSVKGRFTISRDNSKNTLYLQMNSLRAEDTAVYYCARDGSYGYDGLDYWGQGTLVTVSS VL: DIQMTQSPSSLSASVGDRVTITCRASQGIGKYLAWFQQKPGKAPKSLIYTTSSLQSGAPSKFSGSGSGTDFTLTISSLQYEDFATYYCQQYSNYPLTFGGGTKVEIN", "%", 1],
  ["147D10 (antibody, V domains shown, hybridoma mAb) VH: EVQLLESGGGLVQPGGSLRLSCAASGFTFSSYAMSWVRQAPGKGLEWVSAISGRGGNTFYADSVKGRFTISRDNSKNTLYLQMNSLRAEDTAVYYCAKKDYDYVWGSPYFDYWGQGTLVTVSS VL: DIQMTQSPASVSASVGDRVTITCRASQNISNWLTWYQQKPGKAPKLLIYAASSLQSGVPSRFSGSGSGTDFTLSISSLQPEDFATYYCQQTDSFPFTFGPGTKVDVK", "%", 13]
]}

Kindly consider the entry below.
Name the recorded % Change Compared to pH 7.4 + Calcium for 72F5 (antibody, V domains shown, hybridoma mAb) VH: EVQLLESGGGLVQPGGSLRLSCAASGFTFSSYAMIWVRQAPGKGLEWVSTISGSGGYTYSADSVKGRFTISRDNSKNTLYLQMNSLRAEDTAVYYCARRIAVTGTEWYDPWGQGTLVTVSS VL: DIQMTQSPSSLSASVGDRVIIPCRASQNISSYLNWYQQKPGKAPKLLIYAASSLQSGVPSRFSGSGSGTDFTLTISSLQPEDFATYSCQQTYSTPTFGQGTRLDIN . 64
